method_description: qHTS assay for small molecule disruptors of the mitochondrial membrane potential - 5 hr assay (AID 651755); also: nearly all actives have a fitted effect of over 40% in size
condition_label: JC-1-type ratio dye; series mostly up to 92.2 µM
Inconclusive results are not listed. Activity calls are given as the source filed them. Calls follow the shape of the full dose curve.
In this exercise, the only acceptable responses are active, inactive

Reference set, count: 3
O=C1c2cccc(O)c2C(=O)c2c(O)cccc21 ... active
Cc1c(N(C)C)c(=O)n(-c2ccccc2)n1C ... inactive
CC(=O)NS(=O)(=O)c1ccc(N)cc1 ... inactive

From here, focus on the item given below.
*Q* Hey, what did the test say about CC1CC(OC(=O)c2ccccc2O)CC(C)(C)C1 (centres undefined) ?
*A* inactive
